read-out: Collagen III, COL3A1 (gene 1281); assay: BSK_MyoF_CollagenIII: BioMAP Diversity Plus: MyoF Assay for Collagen III Biomarker Activity (AID 2284239); conditions: primary human lung fibroblasts
Activity calls are given as the source filed them. The calls were made as follows: active = hit-call score of the fitted dose curve at least 0.9, where 1 is the maximum; inactive = score below 0.9.
Outcome codes: active, inactive

Cc1cc(CCC(=O)OCCOCCOCCOC(=O)CCc2cc(C)c(O)c(C(C)(C)C)c2)cc(C(C)(C)C)c1O :: inactive
C=C(C)C(=O)OCC(CC)(COC(=O)C(=C)C)COC(=O)C(=C)C :: active
C=C(C)C(=O)OCCOCCOCCOCCOC(=O)C(=C)C :: inactive
CC(C)(C)CC(C)(C)c1ccc(OCCOCC[N+](C)(C)Cc2ccccc2)cc1 :: active
CC(=O)c1c(C)c([N+](=O)[O-])c(C(C)(C)C)c([N+](=O)[O-])c1C :: inactive
COc1ccc(CCN2CCC(Nc3nc4ccccc4n3Cc3ccc(F)cc3)CC2)cc1 :: active
O=C1c2ccccc2C(=O)c2c(O)ccc(O)c21 :: inactive
CC1(C)C2=CCCC(C)(C)[C@]23CC[C@H]1C3 :: active
CCCCCCCCCCCCCCCC(=O)OC/C=C(C)/C=C/C=C(C)/C=C/C1=C(C)CCCC1(C)C :: inactive
CN(C)C(=O)Nc1ccc(Oc2ccc(Cl)cc2)cc1 :: inactive
C=C(C)[C@H]1CC=C(C)C(=O)C1 :: inactive
CC=Cc1ccc(OCC)c(O)c1 :: inactive
CN(C)C(=S)SC(=S)N(C)C :: active
CSCCC=O :: inactive
CS(=O)(=O)c1ccc(C2=C(c3ccccc3)C(=O)OC2)cc1 :: inactive
CCCCN(CCCC)C(=O)N(CCCC)CCCC :: active
CC(C)(N=C=O)c1cccc(C(C)(C)N=C=O)c1 :: inactive
CCCCOC(=O)CCCCCCCC(=O)OCCCC :: inactive
C1=CC2C3C=CC(C3)C2C1 (stereo not given) :: inactive
COc1cc(Cl)c(OC)cc1N :: inactive
